Target: β-glucuronidase (Homo sapiens)
Sequence (P08236 23-651, species assumed): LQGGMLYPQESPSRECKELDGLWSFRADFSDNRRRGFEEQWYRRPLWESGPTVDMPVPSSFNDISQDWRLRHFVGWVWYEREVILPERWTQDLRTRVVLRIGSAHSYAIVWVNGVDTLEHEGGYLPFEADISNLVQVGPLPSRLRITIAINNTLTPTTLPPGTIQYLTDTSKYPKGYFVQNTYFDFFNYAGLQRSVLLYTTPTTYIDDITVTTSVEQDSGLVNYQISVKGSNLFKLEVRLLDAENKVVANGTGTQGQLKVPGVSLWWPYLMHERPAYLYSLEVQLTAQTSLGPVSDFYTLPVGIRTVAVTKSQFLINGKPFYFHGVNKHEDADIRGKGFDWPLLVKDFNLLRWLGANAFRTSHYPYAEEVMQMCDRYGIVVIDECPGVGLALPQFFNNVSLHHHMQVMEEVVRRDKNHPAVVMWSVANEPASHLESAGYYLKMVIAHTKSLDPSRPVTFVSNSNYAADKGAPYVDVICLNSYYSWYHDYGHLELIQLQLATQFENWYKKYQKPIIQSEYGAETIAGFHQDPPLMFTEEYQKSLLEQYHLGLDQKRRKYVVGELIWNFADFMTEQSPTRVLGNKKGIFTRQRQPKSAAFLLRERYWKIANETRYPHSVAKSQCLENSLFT
Experiment: Enzyme hydrolysis half-life with β-glucuronidase
Type: biochemical
Conditions: 100 μM prodrug, pH 6.8, 0.03 U/mL β-glucuronidase, 37° C.; read-out: T1/2 (min.) of enzyme hydrolysis
Counter-ions that a name gives are not always drawn.
Documented half-life at 100 µM across a set of compounds
Quote the value and follow it with the unit of measurement.

// below: answered compounds
Query string: Specify half-life at 100 µM for COc1cccc2c1C(=O)c1c(O)c3c(c(O)c1C2=O)C[C@@](O)(C(C)=O)C[C@@H]3O[C@H]1C[C@H](NC(=O)OCc2ccc(NC(=O)O[C@@H]3O[C@H](C(=O)O)[C@@H](O)[C@H](O)[C@H]3O)cc2)[C@H](O)[C@H](C)O1 [1a-para, sodium salt] and stop.
Result string: 135 min

Query string: Specify half-life at 100 µM for CC(=O)[C@]1(O)Cc2c(O)c3c(c(O)c2[C@@H](O[C@H]2C[C@H](NC(=O)OCc4ccc(NC(=O)O[C@@H]5O[C@H](C(=O)O)[C@@H](O)[C@H](O)[C@H]5O)cc4)[C@H](O)[C@H](C)O2)C1)C(=O)c1ccccc1C3=O [1c-para, sodium salt] and stop.
Result string: 120 min

Query string: Specify half-life at 100 µM for COc1cccc2c1C(=O)c1c(O)c3c(c(O)c1C2=O)C[C@@](O)(C(=O)CO)C[C@@H]3O[C@H]1C[C@H](NC(=O)OCc2ccc(NC(=O)O[C@@H]3O[C@H](C(=O)O)[C@@H](O)[C@H](O)[C@H]3O)cc2)[C@H](O)[C@H](C)O1 [1b-para, sodium salt] and stop.
Result string: 170 min

Consider the record given below.
Query string: Specify half-life at 100 µM for COc1cccc2c1C(=O)c1c(O)c3c(c(O)c1C2=O)C[C@@](O)(C(C)=O)C[C@@H]3O[C@H]1C[C@H](NC(=O)OCc2ccccc2NC(=O)O[C@@H]2O[C@H](C(=O)O)[C@@H](O)[C@H](O)[C@H]2O)[C@H](O)[C@H](C)O1 [1a-ortho, sodium salt] and stop.
Result string: 125 min

---

Test: Enzyme hydrolysis half-life with β-glucosidase
Assay type: biochemical
Details: 100 μM prodrug, pH 6.8, 0.3 U/mL β-glucosidase, 37° C.; read-out: T1/2 (min.) of enzyme hydrolysis
RECORDED_ENDPOINT: half-life at 100 µM

Query string: Specify half-life at 100 µM for COc1cccc2c1C(=O)c1c(O)c3c(c(O)c1C2=O)C[C@@](O)(C(C)=O)C[C@@H]3O[C@H]1C[C@H](NC(=O)OCc2ccc(NC(=O)O[C@@H]3O[C@H](CO)[C@@H](O)[C@H](O)[C@H]3O)cc2)[C@H](O)[C@H](C)O1 [1d-para] and stop.
Result string: > 8.33 h
